Source of measurements: ChEMBL document CHEMBL1135584

System: Human alphaherpesvirus 1
Assay: Anti-HSV-1 activity of the compound
Type: functional, organism-based
OBSERVED PROPERTY: IC50 (µM)
Write it as a number; the unit µM goes unstated.

Q: Supply IC50 value. Item: `Nc1nc(Sc2ccccc2)c2ncn(CCOCP(=O)(OCC(F)(F)F)OCC(F)(F)F)c2n1`
A: 25
